Data provenance is patent US10654837B2.

Recorded IC50 values for a group of compounds are listed next.
biological target: 5HTR2B (Homo sapiens); experiment: 5HTR2B antagonist activity, calcium mobilization assay in human Maverick/293 cells (serotonin as agonist); conditions: intracellular calcium, emission 525 nm, read-out: Ca assay IC50
Sequence (P41595 whole entry): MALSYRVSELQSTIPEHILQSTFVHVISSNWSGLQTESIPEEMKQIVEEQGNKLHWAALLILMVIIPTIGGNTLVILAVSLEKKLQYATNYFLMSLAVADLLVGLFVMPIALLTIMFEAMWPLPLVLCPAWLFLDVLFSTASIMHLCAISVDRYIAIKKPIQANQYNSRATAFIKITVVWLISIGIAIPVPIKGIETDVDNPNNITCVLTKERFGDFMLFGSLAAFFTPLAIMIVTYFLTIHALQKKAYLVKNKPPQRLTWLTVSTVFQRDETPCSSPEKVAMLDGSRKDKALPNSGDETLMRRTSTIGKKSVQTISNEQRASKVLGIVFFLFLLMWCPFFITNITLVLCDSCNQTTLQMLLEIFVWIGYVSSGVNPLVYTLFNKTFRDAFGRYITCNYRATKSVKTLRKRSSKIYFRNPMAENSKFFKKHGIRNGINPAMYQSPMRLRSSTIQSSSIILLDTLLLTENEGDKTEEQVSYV
Numeric only. Scale: nM

INSERT INTO assay_data (compound, target_entity, number) VALUES
  ('COc1ccc(S(=O)(=O)N[C@H]2CCOC2)cc1C(=O)Nc1ccc(Cl)c(F)c1', '5HTR2B (Homo sapiens)', 0.8),
  ('COc1ccc(S(=O)(=O)N[C@H](C)CO)cc1C(=O)Nc1ccc(F)c(C(F)F)c1 [Compound 35b]', '5HTR2B (Homo sapiens)', 4.3);

Exercise: Check the records and state IC50 for COc1ccc(S(=O)(=O)N[C@H]2C[C@H](O)C2)cc1C(=O)Nc1ccc(F)cn1
Key: 159

Exercise: Check the records and state IC50 for COc1ccc(S(=O)(=O)N[C@H]2CCOC2)cc1C(=O)Nc1ccc(F)c(C2CC2)n1
Key: 0.5

Exercise: Check the records and state IC50 for COc1ccc(S(=O)(=O)N[C@@H]2CCNC2)cc1C(=O)Nc1ccc(F)cc1F
Key: 1.6
